# tgt: UniProt:Q9NR97
# Sequence (Q9NR97 27-1041): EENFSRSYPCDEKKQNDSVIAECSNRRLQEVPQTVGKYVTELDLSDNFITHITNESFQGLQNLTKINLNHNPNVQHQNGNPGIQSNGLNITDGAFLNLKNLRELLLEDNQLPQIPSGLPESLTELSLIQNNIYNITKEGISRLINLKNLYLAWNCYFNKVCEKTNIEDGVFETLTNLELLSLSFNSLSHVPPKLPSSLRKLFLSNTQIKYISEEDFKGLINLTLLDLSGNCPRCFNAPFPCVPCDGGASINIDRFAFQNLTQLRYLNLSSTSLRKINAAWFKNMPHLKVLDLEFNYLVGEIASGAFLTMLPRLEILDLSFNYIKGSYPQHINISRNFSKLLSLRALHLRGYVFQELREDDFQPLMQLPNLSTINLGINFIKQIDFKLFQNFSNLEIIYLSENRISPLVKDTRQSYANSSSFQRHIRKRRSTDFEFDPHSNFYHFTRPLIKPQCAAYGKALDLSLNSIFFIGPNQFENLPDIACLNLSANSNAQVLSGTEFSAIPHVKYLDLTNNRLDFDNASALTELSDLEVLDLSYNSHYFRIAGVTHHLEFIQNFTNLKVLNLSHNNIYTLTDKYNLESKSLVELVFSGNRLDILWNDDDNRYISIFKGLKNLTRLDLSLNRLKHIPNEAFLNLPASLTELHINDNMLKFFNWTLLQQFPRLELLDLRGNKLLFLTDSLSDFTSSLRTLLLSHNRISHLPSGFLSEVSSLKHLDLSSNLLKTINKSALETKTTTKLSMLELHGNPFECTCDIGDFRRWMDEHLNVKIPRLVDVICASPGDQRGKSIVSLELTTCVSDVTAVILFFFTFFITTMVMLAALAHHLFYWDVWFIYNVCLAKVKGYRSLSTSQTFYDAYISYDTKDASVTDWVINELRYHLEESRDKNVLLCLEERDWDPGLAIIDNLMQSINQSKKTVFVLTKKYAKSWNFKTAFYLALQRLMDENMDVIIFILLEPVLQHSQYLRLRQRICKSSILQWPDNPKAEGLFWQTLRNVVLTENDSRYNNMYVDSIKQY
# test: Human TLR8 Reporter Assay
# runConditions: HEK-Blue hTLR8 cells, 16 hours, normalized to tl8-506 (1 μM) and DMSO
pEC50: −log10 of the molar value.
I would appreciate it if you labelled entries criterion met when pEC50 is 6 or higher, otherwise criterion not met.

# example entries with known answers
{"columns": ["molecule", "tgt", "assignedCategory"],
 "data": [
  ["CCCCNc1nc(N)nc2cn(Cc3c(OC)cc(CCN)cc3OC)nc12 [Compound 67]", "UniProt:Q9NR97", "criterion met"],
  ["CCC[C@@H](CO)Nc1nc(N)nc2cn(Cc3c(OC)cccc3OC)nc12 [Compound 108]", "UniProt:Q9NR97", "criterion met"]
]}

Query block: pEC50 >= 6 for CCCCNc1nc(N)nc2cn(Cc3cncn3C)nc12 [Compound 180] ?
Result block: criterion not met

Query block: Now try CCCCC(CCC)Nc1nc(N)nc2cn(Cc3ccccc3OC)nc12 (stereo not drawn) [Compound 19] .
Result block: criterion not met

Query block: Could you do the same for CCCCNc1nc(N)nc2cn(Cc3c(OC)cccc3OC)nc12 [Compound 5] , please?
Result block: criterion met

Query block: Ok, now CCCCNc1nc(N)nc2cn(CC3CCCCC3)nc12 [Compound 7]
Result block: criterion not met

Query block: // repeat for CCC[C@@H](CO)Nc1nc(N)nc2cn(Cc3c(OC)cc(CN(C)C)cc3OC)nc12 [Compound 199] and report
Result block: criterion met
